- Study System: hSCN3A (Homo sapiens)
- Construct: expressed in transfected cells
- Sequence (Q9NY46 whole entry): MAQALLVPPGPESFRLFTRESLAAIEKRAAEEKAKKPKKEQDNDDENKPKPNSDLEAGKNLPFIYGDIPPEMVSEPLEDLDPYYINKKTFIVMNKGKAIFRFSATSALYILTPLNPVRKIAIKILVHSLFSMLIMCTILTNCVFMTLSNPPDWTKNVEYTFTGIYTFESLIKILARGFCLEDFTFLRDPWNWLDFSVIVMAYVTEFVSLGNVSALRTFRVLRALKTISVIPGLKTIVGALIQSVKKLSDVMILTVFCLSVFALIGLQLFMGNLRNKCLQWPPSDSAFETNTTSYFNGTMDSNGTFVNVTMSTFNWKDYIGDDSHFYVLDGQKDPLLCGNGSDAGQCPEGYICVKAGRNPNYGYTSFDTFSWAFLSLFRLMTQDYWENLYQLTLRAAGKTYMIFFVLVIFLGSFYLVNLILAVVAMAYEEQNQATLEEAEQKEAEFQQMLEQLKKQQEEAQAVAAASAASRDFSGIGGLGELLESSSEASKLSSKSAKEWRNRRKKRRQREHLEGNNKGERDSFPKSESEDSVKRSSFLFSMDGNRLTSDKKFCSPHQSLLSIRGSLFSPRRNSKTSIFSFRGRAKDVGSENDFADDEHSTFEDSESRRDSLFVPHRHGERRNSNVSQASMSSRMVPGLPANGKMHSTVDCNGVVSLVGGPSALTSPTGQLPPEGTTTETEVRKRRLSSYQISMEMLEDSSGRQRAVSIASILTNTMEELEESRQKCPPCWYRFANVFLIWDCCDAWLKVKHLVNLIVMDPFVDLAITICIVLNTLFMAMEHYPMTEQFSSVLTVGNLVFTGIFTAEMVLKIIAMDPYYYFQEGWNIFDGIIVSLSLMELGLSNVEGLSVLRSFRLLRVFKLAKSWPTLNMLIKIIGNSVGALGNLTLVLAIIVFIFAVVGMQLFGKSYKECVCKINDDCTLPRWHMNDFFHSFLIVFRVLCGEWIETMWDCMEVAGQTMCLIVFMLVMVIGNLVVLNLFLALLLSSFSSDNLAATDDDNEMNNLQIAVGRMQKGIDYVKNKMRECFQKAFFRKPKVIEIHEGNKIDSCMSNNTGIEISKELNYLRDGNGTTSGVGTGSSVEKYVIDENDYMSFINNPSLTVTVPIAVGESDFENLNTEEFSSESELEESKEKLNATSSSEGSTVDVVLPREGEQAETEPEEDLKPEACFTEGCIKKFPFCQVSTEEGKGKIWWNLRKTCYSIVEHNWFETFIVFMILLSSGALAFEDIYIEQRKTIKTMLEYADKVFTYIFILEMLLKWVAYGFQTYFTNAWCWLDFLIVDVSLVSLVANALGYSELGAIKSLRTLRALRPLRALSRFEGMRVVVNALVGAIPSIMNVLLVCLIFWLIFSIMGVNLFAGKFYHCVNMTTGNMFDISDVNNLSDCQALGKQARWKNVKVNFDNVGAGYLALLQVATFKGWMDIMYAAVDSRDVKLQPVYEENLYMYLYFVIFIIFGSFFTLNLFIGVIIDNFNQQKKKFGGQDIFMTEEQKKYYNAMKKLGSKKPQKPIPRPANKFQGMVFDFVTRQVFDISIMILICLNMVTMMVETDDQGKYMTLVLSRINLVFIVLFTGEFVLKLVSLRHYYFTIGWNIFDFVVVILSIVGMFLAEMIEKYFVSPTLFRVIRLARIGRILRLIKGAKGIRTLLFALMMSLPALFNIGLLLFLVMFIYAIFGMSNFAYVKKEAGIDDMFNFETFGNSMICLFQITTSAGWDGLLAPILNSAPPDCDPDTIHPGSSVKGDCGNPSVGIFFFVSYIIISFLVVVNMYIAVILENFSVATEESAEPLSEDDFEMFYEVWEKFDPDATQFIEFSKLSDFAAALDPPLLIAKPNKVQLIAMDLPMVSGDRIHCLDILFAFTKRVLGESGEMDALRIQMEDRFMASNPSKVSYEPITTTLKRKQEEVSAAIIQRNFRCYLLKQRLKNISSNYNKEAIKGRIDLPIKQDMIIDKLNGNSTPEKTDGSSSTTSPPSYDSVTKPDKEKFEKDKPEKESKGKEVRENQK
- Assay Explanation: SCN3A inhibitory activity in HEK cells stably expressing hSCN3A (whole-cell patch clamp / radiotracer efflux HTS)
- Assay type: cell-based
- Study Conditions: HEK cells stably transfected with hSCN3A; read-out: SCN3A Inhibitory Activity
Readout: IC50

Compound	IC50
O=S(=O)(NCCc1ccc(Cl)s1)c1ccc(S(=O)(=O)Nc2nccs2)cc1 [Compound 41]	100 to 500 nM

Look up IC50: COc1ccc(CNS(=O)(=O)c2ccc(S(=O)(=O)Nc3nccs3)cc2)cc1Cl [Compound 37]
100 to 500 nM

Same question for O=S(=O)(NCC1(Oc2ccc(Cl)cc2F)CCC1)c1ccc(S(=O)(=O)Nc2nccs2)cc1 [Compound 20] please.
< 100 nM

Same question for O=S(=O)(Nc1nccs1)c1ccc(S(=O)(=O)NC2CCCCCC2)cc1 [Compound 30] please.
100 to 500 nM

Same question for O=S(=O)(NCC1COc2cc(Cl)c(Cl)cc2O1)c1ccc(S(=O)(=O)Nc2nccs2)cc1 (stereo not shown) [Compound 9] please.
< 100 nM

Same question for CC(C)(C)c1ccc(OCCNS(=O)(=O)c2ccc(S(=O)(=O)Nc3ncc(Cl)s3)cc2)cc1 [Compound 6] please.
< 100 nM

Same question for CC(C)(CNS(=O)(=O)c1ccc(S(=O)(=O)Nc2nccs2)cc1)Nc1ccc(C(C)(C)C)cc1 [Compound 31] please.
100 to 500 nM
